# TESTED_ON: Olfr166 (Mus musculus, UniProt Q8VGX2)
# Sequence (Q8VGX2 1-312): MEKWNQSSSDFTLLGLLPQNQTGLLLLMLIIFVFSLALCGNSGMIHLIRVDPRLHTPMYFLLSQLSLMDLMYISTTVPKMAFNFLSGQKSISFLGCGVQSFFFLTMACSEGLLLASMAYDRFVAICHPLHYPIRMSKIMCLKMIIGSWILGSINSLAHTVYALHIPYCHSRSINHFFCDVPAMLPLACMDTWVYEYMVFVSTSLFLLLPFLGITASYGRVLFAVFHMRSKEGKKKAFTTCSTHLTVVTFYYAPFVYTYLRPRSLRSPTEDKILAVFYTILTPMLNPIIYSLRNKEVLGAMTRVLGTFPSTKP
# TEST_DETAILS: cell-based
pEC50: −log10 of the molar value.
RECORDED_ENDPOINT: pEC50

Prompt: Lookup: pEC50 / Olfr166 (Mus musculus, UniProt Q8VGX2) / "c1ccncc1"
Completion: ~2.30
